Reference for the values: patent US20060093617A1

Each entry below carries its recorded Ki.
Target: HLA-B0702 (human)
Assay: competition vs 125I probe peptide, purified HLA
Please format your answer as a value with the unit trailing.

1. ATLGFGAYM (modifications not checked) = 13000 nM
2. APTGSGKST (modifications not checked) = 370 nM

# evaluate next
Request: What measured Ki goes with APLGGAARA (modifications not checked) ?
Response: 115 nM
